Target: EGFR T790M L858R (Homo sapiens, UniProt P00533, L858R/T790M)
Sequence (P00533 25-1210 T790M/L858R): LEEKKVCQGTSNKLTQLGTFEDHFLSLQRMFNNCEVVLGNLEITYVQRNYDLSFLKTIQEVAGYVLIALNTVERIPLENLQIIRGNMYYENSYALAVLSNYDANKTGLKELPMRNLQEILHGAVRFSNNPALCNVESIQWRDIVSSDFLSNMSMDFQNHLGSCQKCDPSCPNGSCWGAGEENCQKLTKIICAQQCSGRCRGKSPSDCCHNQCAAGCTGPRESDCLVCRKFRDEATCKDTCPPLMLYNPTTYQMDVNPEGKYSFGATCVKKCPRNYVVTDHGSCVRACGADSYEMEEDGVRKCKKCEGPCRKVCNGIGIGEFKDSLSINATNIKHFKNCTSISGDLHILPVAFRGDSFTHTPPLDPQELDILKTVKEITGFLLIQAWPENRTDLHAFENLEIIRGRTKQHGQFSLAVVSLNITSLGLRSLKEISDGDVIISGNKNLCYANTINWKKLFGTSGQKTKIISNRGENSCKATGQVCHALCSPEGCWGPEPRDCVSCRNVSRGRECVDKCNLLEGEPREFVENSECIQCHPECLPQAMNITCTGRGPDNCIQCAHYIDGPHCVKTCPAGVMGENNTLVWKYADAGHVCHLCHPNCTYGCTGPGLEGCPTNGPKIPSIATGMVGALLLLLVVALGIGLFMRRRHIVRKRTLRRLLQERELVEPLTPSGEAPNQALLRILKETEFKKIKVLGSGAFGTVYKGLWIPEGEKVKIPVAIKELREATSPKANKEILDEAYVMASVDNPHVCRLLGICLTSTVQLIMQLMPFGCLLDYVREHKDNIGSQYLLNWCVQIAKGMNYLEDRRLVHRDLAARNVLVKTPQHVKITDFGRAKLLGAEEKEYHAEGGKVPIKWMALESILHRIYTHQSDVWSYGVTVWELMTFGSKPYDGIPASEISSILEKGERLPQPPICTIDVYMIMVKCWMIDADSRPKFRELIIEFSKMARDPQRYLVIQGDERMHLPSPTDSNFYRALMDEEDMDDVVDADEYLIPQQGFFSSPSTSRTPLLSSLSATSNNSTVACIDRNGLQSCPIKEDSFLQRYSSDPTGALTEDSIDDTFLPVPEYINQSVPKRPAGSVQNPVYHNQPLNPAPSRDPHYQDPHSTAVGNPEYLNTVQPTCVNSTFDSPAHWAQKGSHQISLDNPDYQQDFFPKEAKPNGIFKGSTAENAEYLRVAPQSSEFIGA
Assay: EGFR T790M L858R biochemical assay (Caliper mobility shift)
Conditions: 5 μM ATP; apparent Ki (Morrison fit) converted by Cheng-Prusoff, Km of ATP 1.3 μM
Method: The exemplified compounds described herein were tested according to the assay below. The enzyme data reported in Tables 4-5 is generally a representative of multiple experiments. Reactions proceed for 30 minutes at room temperature (22° C.) and are terminated with 80 mM 2,2′,2″,2′″-(ethane-1,2-diyldinitrilo)tetraacetic acid (EDTA). Product is detected using the Caliper mobility shift detection method where product and substrate are electrophoretically separated and measured.
experimental.readout: Ki (nM)

>>> recorded_measurement("CC(C)n1nc(N2CC(F)(F)C2)c2cnc(Nc3ccnc(N4CC[C@H](O)[C@H](F)C4)n3)cc21 (racemic)")
1.8
>>> recorded_measurement("CCC(C)n1nc(N2CC[C@H](C(N)=O)C2)c2cnc(Nc3ccnc(N4CCC(C)(O)CC4)n3)cc21 (stereo partly shown)")
1.8
>>> recorded_measurement("CC(C)Nc1nn(C(C)C)c2cc(Nc3ccnc(-c4cnn(S(=O)(=O)C5CC5)c4)n3)ncc12")
2.7
>>> recorded_measurement("CC(C)n1nc(N2CC(CC#N)C2)c2cnc(Nc3ccnc(-c4cnn(S(=O)(=O)C5CC5)c4)n3)cc21")
0.8

P. CNC(=O)C1CN(c2nn(C(C)C)c3cc(Nc4ccnc(-c5cnn(S(=O)(=O)C6CC6)c5)n4)ncc23)C1
Q. CC(C)n1nc(OC2CCOC2)c2cnc(Nc3ccnc(-c4cnn(S(=O)(=O)C5CC5)c4)n3)cc21 (stereo not shown)
R. CC(C)n1nc(N2CCCC2)c2cnc(Nc3ccnc(N4CCC(O)C(C)(C)C4)n3)cc21 (stereo not shown)
Challenge: // sort entries: Ki, high to low Reply with the item labels sorted in the order that was asked for.
Response given: Q, R, P
